PROCEDURE_SUMMARY: Decomposition point (commencement of decomposition) of 2,5,8,11-tetraoxatridecan-13-oates
Type: physicochemical
MEASURED_ENDPOINT: Decomposition point (°C)
Give the value, in units of °C, as a plain number.

Q) Which Decomposition point is listed for COCCOCCOCCOCC(=O)[O-].[Na+] [Example 1, sodium 2,5,8,11-tetraoxatridecan-13-oate] ?
A) 384

Q) Which Decomposition point is listed for CCCCCCCCCCN.COCCOCCOCCOCC(=O)O ?
A) 156

Q) Which Decomposition point is listed for COCCOCCOCCOCC(=O)[O-].[K+] ?
A) 369

Q) Which Decomposition point is listed for CCCCCCCCN.COCCOCCOCCOCC(=O)O ?
A) 145

----------
PROCEDURE_SUMMARY: Viscosity of the ionic liquids at 25° C.
Format: physicochemical
RUN_PARAMETERS: at 25° C.
MEASURED_ENDPOINT: Viscosity

Q) Which Viscosity is listed for CCCCCCCCCCN.COCCOCCOCCOCC(=O)O ?
A) 4.00 · 10^2 mPa · s

Q) Which Viscosity is listed for COCCOCCOCCOCC(=O)O ?
A) 2.40 · 10^2 mPa · s

Q) Which Viscosity is listed for COCCOCCOCCOCC(=O)[O-].[Na+] [Example 1, sodium 2,5,8,11-tetraoxatridecan-13-oate] ?
A) 1.64 · 10^5 mPa · s

Q) Which Viscosity is listed for CCCCCCCCN.COCCOCCOCCOCC(=O)O ?
A) 3.75 · 10^2 mPa · s

Value source: patent US8461382B2
